Target: VIPR1 (Homo sapiens)
Construct: purchased Promega (in-house HiBiT-GPCR construct library, NanoBRET)
Sequence (P32241 31-457): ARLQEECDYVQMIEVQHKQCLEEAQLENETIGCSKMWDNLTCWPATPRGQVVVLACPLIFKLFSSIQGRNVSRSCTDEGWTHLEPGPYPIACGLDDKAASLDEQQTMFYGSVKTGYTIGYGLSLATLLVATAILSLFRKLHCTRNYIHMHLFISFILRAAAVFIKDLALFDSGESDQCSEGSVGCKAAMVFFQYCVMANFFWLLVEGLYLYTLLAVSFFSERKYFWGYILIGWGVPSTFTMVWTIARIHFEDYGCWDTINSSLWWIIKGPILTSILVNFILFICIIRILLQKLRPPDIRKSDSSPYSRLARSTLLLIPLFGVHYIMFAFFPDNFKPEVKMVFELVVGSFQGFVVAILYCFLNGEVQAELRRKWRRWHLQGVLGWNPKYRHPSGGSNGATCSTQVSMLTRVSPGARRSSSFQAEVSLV
Assay: NanoBRET screen HiBiT-VIPR1 in HEK293
Type: binding
Settings: VIPR1; tracer 1μM
Below is a list of entries, each paired with its recorded NanoBRET Fold Response value.
recorded endpoint: NanoBRET Fold Response

molecule	recorded endpoint	number
Cc1cc2c(s1)Nc1ccccc1N=C2N1CCN(CCCNC(=O)CCOCCOCCOCCOCCNC(=O)CCc2ccc3n2[B-](F)(F)[N+]2=C(c4ccc[nH]4)C=CC2=C3)CC1	NanoBRET Fold Response	1.04
CC(C)N(CC[C@H](c1ccccc1)c1cc(CCNC(=O)CCOCCOCCOCCOCCNC(=O)CCc2ccc3n2[B-](F)(F)[N+]2=C(c4ccc[nH]4)C=CC2=C3)ccc1O)C(C)C	NanoBRET Fold Response	0.78
N#CN=C(NCCCOc1cccc(CN2CCCCC2)c1)NCCNC(=O)CCOCCOCCOCCOCCNC(=O)CCc1ccc2n1[B-](F)(F)[N+]1=C(c3ccc[nH]3)C=CC1=C2	NanoBRET Fold Response	1.00
O=C(CCOCCOCCOCCOCCNC(=O)CCc1ccc2n1[B-](F)(F)[N+]1=C(c3ccc[nH]3)C=CC1=C2)NCCCN1CCN(C2=Nc3ccccc3Oc3ccc(Cl)cc32)CC1	NanoBRET Fold Response	1.05
COc1ccccc1N1CCN(CCCCN2C(=O)c3ccc(CNC(=O)CCOCCOCCOCCOCCNC(=O)CCc4ccc5n4[B-](F)(F)[N+]4=C(c6ccc[nH]6)C=CC4=C5)cc3C2=O)CC1	NanoBRET Fold Response	1.02
CCCn1c(=O)c2[nH]c(-c3ccc(OCC(=O)NCCNC(=O)CCOCCNC(=O)c4ccc(CNC(=O)CCc5ccc6n5[B-](F)(F)[N+]5=C(c7ccc[nH]7)C=CC5=C6)cc4)cc3)nc2n(CCC)c1=O	NanoBRET Fold Response	0.99
COc1ccccc1N1CCN(CCCCN2C(=O)c3ccc(CNC(=O)CCOCCNC(=O)c4ccc(CNC(=O)CCc5ccc6n5[B-](F)(F)[N+]5=C(c7ccc[nH]7)C=CC5=C6)cc4)cc3C2=O)CC1	NanoBRET Fold Response	1.05
Cc1nc2n(c(=O)c1CCN1CCC(c3noc4cc(F)ccc34)CC1)CCCC2OC(=O)NCCOCCOCCOCCOCCNC(=O)CCc1ccc2n1[B-](F)(F)[N+]1=C(c3ccc[nH]3)C=CC1=C2 (centres unmarked)	NanoBRET Fold Response	1.10
O=C(CCc1ccc2n1[B-](F)(F)[N+]1=C(c3ccc[nH]3)C=CC1=C2)NCCOCCOCCNC(=O)OCCOCCN1CCN(C2=Nc3ccccc3Sc3ccccc32)CC1	NanoBRET Fold Response	0.92
CC(C)N(CC[C@H](c1ccccc1)c1cc(CCNC(=O)c2ccc(CNC(=O)CCc3ccc4n3[B-](F)(F)[N+]3=C(c5ccc[nH]5)C=CC3=C4)cc2)ccc1O)C(C)C	NanoBRET Fold Response	0.98
O=C(CCc1ccc2n1[B-](F)(F)[N+]1=C(c3ccc[nH]3)C=CC1=C2)NCc1ccc(C(=O)NCCOCCC(=O)N[C@@H]2CC[C@@]3(O)[C@H]4Cc5ccc(O)c6c5[C@@]3(CCN4CC3CC3)[C@H]2O6)cc1 [Naltrexone-3-NB590]	NanoBRET Fold Response	1.36

Measured values drawn from paper PMC8151276 for this set.
